Target: Nuclear receptor subfamily 1 group I member 3 (Homo sapiens, UniProt Q14994)
Sequence (Q14994 whole entry): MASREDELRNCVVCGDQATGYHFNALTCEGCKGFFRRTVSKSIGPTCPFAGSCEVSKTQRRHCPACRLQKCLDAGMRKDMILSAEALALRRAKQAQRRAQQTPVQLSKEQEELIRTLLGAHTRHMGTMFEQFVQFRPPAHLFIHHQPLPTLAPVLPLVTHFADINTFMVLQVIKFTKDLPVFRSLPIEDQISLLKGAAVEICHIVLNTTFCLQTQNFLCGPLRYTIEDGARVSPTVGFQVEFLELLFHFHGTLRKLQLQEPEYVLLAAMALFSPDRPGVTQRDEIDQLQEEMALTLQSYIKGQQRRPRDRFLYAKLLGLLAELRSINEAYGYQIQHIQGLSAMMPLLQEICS
Assay: Agonist activity at human CAR expressed in human HepG2 cells co-expressing CYP2B6 incubated for 23 hrs by Luciferase reporter gene assay
pEC50: −log10 of the molar value.
Recorded Metric: pEC50

Some compounds with known pEC50 results, for comparison:
> print(dat)
                                        mol  recorded.metric  reported.measurement
1  O=C(OC1Cc2ccccc2C1)c1c(-c2ccc3ccccc3c2)nc2occn12            pEC50                  6.42
2  O=C(Nc1c(-c2ccc3ccccc3c2)nc2occn12)C1Cc2ccccc2C1            pEC50                  5.92
3  O=C(NOCc1ccccc1)c1c(-c2ccc3ccccc3c2)nc2occn12            pEC50                  5.36
4  O=C(NCC1Cc2ccccc2C1)c1c(-c2ccc(F)cc2F)nc2occn12            pEC50                  5.72
5  O=C(NOCc1ccc(Cl)c(Cl)c1)c1c(-c2ccc3ccccc3c2)nc2occn12            pEC50                  6.46
6  O=C(NC1Cc2ccccc2C1)c1c(-c2ccc(F)c(C(F)(F)F)c2)nc2occn12            pEC50                  4.74
7  O=C(NC1Cc2ccccc2C1)c1c(-c2ccc(Cl)cc2)nc2occn12            pEC50                  6.42
8  O=C(N[C@H]1C[C@@H](c2ccccc2)C1)c1c(-c2ccc3ccccc3c2)nc2occn12            pEC50                  6.48

(P) O=C(NCCc1ccc(Br)cc1)c1c(-c2ccc3ccccc3c2)nc2occn12
(Q) O=C(NC1Cc2ccccc2C1)c1c(-c2ccc(F)cc2F)nc2occn12
Min pEC50? P | Q Respond using the label that marks the chosen record. P

// data source = ChEMBL document CHEMBL6109132
